System: HeLa cells
Test: [3H]Adenosine uptake functional cellular assay
Type: cell-based
Settings: Homo sapiens, HeLa, accumulation of [3H]adenosine into HeLa cells; compound range 10 μM to […]; read-out: Adenosine uptake inhibition IC50
Form field: pIC50 (one value per entry).
# reply with the number alone; pIC50 is -log10 of concentration in mol/L

Nc1ncc(F)n2c([C@@H]3CC[C@H]4CCC(=O)N4C3)nc(-c3ccc(C(=O)Nc4cc(C5CC5)ccn4)cc3F)c12 [Example 167]    6.50
Nc1nccn2c([C@@H]3CC[C@H]4CCCN4C3)nc(-c3ccc(C(=O)Nc4cc(C(F)(F)F)ccn4)cc3)c12 [Example 87]    7.12
Cc1cc(C(=O)Nc2cc(C(F)(F)F)ccn2)cc(F)c1-c1nc([C@@H]2CC[C@H]3CCC(=O)N3C2)n2ccnc(N)c12 [Example 214]    6.29

What reported pIC50 corresponds to C#CCCOc1cc(C(=O)Nc2cc(C(F)(F)F)ccn2)ccc1-c1nc([C@@H]2CC[C@H]3CCC(=O)N3C2)n2ccnc(N)c12 [Example 204] on HeLa cells? 5.86

Could you do the same for COc1cc(C(=O)Nc2cc(C3CC3)ccn2)ccc1-c1nc([C@@H]2CC[C@H]3[C@@H](C)OC(=O)N3C2)n2ccnc(N)c12 [Example 53] , please? 6.53

Could you do the same for Cn1nc(NC(=O)c2ccc(-c3nc([C@@H]4CC[C@H]5CCC(=O)N5C4)n4c(Cl)cnc(N)c34)c(OC3CC3)c2)cc1C(F)(F)F [Example 145] , please? 5.62

Could you do the same for Nc1nccn2c([C@@H]3CC[C@H]4CN(CCO)CC(=O)N4C3)nc(-c3ccc(C(=O)Nc4cc(C(F)(F)F)ccn4)cc3)c12 [Example 66] , please? 6.69
